# credit: patent US20230358742A1

Target: T1, His-LSP (LMOf2365_0639, Listeria monocytogenes surface protein, with N-terminal 6x-histidine tag) (Listeria monocytogenes)
T1 construct: also called Listeria surface protein
T1 chain: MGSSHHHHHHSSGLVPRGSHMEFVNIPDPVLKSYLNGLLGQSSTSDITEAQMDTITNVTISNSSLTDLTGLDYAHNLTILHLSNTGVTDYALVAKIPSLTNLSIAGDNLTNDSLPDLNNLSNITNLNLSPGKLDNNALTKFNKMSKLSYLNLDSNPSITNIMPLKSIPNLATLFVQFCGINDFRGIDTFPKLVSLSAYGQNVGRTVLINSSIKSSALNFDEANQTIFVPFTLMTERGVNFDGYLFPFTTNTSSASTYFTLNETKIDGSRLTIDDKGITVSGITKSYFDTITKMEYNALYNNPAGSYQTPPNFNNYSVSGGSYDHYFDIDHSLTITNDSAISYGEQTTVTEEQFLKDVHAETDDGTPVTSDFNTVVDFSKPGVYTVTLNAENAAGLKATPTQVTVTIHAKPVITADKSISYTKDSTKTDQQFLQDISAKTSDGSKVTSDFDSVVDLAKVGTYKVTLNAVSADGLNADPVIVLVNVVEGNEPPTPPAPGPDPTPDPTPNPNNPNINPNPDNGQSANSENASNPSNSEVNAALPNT
Assay: flow cytometry, clonal yeast-surface display, 20 nM His-LSP
measured_quantity: binding result

INSERT INTO measurements (binder, measured_quantity, result) VALUES
  ('MATVKFTYQGEEKQVDISKIKDVGRHGQHICFWL (designed binder, also called clone 6; Clone 6) [rcSso7d.LSP.6]', 'binding result', 'binds'),
  ('MATVKFTYQGEEKQVDISKIKDVGRSGQNICFYL (designed binder, also called clone 1; Clone 1) [rcSso7d.LSP.1]', 'binding result', 'binds'),
  ('rcSso7d.LSP.7 (designed binder, also called clone 7; Clone 7) MATVKFTYQGEEKQVDISKIKIAVYRYGQYIYFSYDEGGGASGIGKVSEKDAPKELLQMLEKQ', 'binding result', 'binds'),
  ('rcSso7d.LSP.5 (designed binder, also called clone 5; Clone 5) MATVKFTYQGEEKQVDISKIKWVRRAGQWIDFAYDEGGGAKGYGIVSEKDAPKELLQCWKS', 'binding result', 'binds');
